B1: PLAGL1 (parent)
chain: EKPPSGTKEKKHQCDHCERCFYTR

# Variants of: B1
# ASSAY INFO: protein stability index of a GFP-peptide fusion (GPS, HEK-293T) (PSI 1-6); higher = more stable;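 note: lentivirally expressed fusions sorted by FACS into six bins by GFP to DsRed ratio, PSI derived from sequencing read proportions per bin multiplied by bin number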
# ASSAY CONDITIONS: c terminus: a fixed tail appended
QUANTITY MEASURED: protein stability index
// return just the number, without any unit appended

Any idea what protein stability index was measured for `R19N` ? 4.36

Likewise for `Y22G` ? 4.03

Likewise for `K11V` ? 3.86

Likewise for `E18I` ? 2.63

Likewise for `C20M` ? 2.23

Likewise for `P3M` ? 3.41

Likewise for `S5K` ? 3.88

Likewise for `T7I` ? 4.11

Likewise for `K8G` ? 3.29

Likewise for `K8C` ? 4.24

Likewise for `E18W` ? 3.41

Likewise for `K8H` ? 3.88

Likewise for `P4K` ? 3.53

Likewise for `S5F` ? 3.19

Likewise for `H12F` ? 2.39

Likewise for `F21S` ? 4.22

Likewise for `C20P` ? 3.07

Likewise for `E18H` ? 3.33

Likewise for `K11Q` ? 4.28

Likewise for `Y22M` ? 4.37

Likewise for `K2T` ? 3.52

Likewise for `H16W` ? 2.9

Likewise for `Y22S` ? 4.17

Likewise for `P3D` ? 4.19

Likewise for `R19I` ? 3.52

Likewise for `P3L` ? 3.32

Likewise for `K10E` ? 4.42

Likewise for `F21M` ? 4.75

Likewise for `T7R` ? 3.44

Likewise for `D15T` ? 3.37

Likewise for `K11F` ? 3.67

Likewise for `S5E` ? 3.72

Likewise for `C14Y` ? 3.56

Likewise for `K2H` ? 3.65

Likewise for `S5N` ? 3.79

Likewise for `E9K` ? 2.9

Likewise for `E1K` ? 2.98

Likewise for `T23Q` ? 4.01

Likewise for `P4H` ? 3.56

Likewise for `S5R` ? 3.29

Likewise for `T7A` ? 3.44

Likewise for `F21E` ? 4.11

Likewise for `K10R` ? 3.43

Likewise for `T7Y` ? 3.27

Likewise for `H16A` ? 4.15
